assay: NCI Yeast Anticancer Drug Screen. Data for the mec2-1 strain (AID 157); settings: S. cerevisiae mec2-1 strain, at 50.0 µM, active compounds read high
This is part of a sample that, as a whole, favours compounds with a hit. Of some 79,000 tested, about 15% had one in any assay.
Assay endpoint: growth inhibition (%)
Report as a plain number; the unit % is understood.

Structure string	growth inhibition [%]
O=c1cccccc1[O-].O=c1cccccc1[O-].O=c1cccccc1[O-].[Ce+3]	92
COc1cc(C(=O)C=[N+]=[N-])c([N+](=O)[O-])c(OC)c1OC	90.8
S=C(Nc1ccc(N=Nc2ccccc2)cc1)SCc1ccccc1	97.7

Q: Quick one: growth inhibition for CN(C)CCNC(=O)c1cccc2ccc(-c3ccc(-c4ccccc4)cc3)nc12 ?
Result: 99.6

Q: Any idea what its growth inhibition is? The compound is O=C(NCCl)Nc1ccccc1
Result: 62.8
